The measurements presented in this section are drawn from PubChem BioAssay AID1347404.

# tested.target: E3 ubiquitin-protein ligase RBX1 (Homo sapiens) + Cullin-1 (Homo sapiens) (UniProt P62877+Q13616)
# Sequence (P62877 whole entry, looked up): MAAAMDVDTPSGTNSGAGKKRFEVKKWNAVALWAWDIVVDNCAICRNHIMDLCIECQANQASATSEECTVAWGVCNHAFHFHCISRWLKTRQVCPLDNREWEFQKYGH
# Sequence (Q13616 whole entry, looked up): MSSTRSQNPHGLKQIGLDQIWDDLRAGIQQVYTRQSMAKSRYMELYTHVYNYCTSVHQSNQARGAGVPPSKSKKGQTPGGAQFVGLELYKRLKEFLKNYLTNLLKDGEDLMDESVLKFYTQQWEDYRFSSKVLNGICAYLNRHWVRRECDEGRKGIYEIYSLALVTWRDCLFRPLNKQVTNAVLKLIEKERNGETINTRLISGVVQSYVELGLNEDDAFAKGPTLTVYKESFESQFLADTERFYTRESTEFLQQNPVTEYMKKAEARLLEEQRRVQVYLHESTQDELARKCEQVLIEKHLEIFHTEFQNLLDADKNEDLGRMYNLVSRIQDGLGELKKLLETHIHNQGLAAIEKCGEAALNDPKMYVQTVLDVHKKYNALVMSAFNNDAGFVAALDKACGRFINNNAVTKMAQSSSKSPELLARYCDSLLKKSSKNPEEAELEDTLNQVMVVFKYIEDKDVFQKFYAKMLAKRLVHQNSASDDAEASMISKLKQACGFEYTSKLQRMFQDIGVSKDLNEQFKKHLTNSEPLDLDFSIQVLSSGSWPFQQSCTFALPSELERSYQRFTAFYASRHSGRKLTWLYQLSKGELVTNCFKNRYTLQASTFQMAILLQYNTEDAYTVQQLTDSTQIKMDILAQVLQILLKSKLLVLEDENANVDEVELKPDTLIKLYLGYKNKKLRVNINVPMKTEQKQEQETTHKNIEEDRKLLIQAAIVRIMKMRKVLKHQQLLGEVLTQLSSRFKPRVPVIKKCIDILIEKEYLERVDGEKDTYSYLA
# assay.remarks: inhibitors of human ROC1-CUL1 ubiquitin ligase activity (AID 1347404)
# condition.details: in vitro K48 di-Ub FRET, acceptor:donor ratio, 45 min; at 10 µM; active compounds read high
Hit rate of the full screen: of about 140,000 compounds, about 860 (0.61%) were called active. Only a selection was taken, and actives are over-represented in it overall.
quantity.kind: inhibition (%)

>>> df
                                    molecule  measured_value
 0  Cc1ccc(-c2c3nnc4ccccc4c3nc3sc4c(=O)[nH]c(C)nc4c23)cc1            6.93
 1  O=C(c1ccc2c(c1)C1C=CCC1C(c1ccccc1)N2)N1CCOCC1 (stereo not drawn)           -11.2
 2                   CN1CCC2(CC1)CC(=O)NC2=O           -1.86
 3             CCc1ccccc1-c1nc2c(cnn2C)[nH]1            5.57
 4  CCOc1cccc(CC(=O)N2CCc3c([nH]c4ccccc34)C2c2ccc(F)cc2)c1OCC (stereo not drawn)            1.07
 5  CCOC(=O)C(C(=O)OCC)c1ccc(OC)cc1[N+](=O)[O-]            2.12
 6  CC1CCN(CC(O)COC2CC3CCC2(C)C3(C)C)CC1 (stereo not drawn)           0.492
 7             CCCNC(=O)C1CCN(Cc2ccccc2C)CC1            4.05
 8  N#CC1C(=N)OC2=C(C(=O)CCC2)C1c1ccsc1 (stereo not drawn)            6.79
 9  CC(O)c1cn(C2CCN(c3nc4ccccc4s3)CC2)nn1 (stereo not drawn)            4.88
10            Cc1ccc(C2=NC(=O)OC2(C)C)c(C)c1            2.99
11  COc1ccccc1C(=O)Nc1ccnn1C1CCN(Cc2nccn2C)CC1            9.37
12  Cc1ccc(C2Oc3ccccc3C3CC(c4cccs4)=NN32)o1 (stereo not drawn)           0.171
13  O=C(CSc1nc2scc(-c3ccccc3)c2c(=O)n1-c1ccccc1)c1ccccc1F            8.07
14  CCCc1sc(-n2c(C)cc(/C=C3/C(=O)NC(=S)N(C)C3=O)c2C)c(C#N)c1C            76.1
15  COC(=O)c1cccc(COC(=O)c2ccc(NC(C)=O)cc2)c1             1.6
16  CCN(CC1CCCN(CCc2cccc(OC)c2)C1)C1CCN(C(C)=O)CC1 (stereo not drawn)           -12.6
17  Cc1ccc(N2C(=O)c3ccccc3NC2c2ccc(OCc3ccccc3)cc2)cc1 (stereo not drawn)            8.59
18   CCN(CC)C(=O)CSc1nc2sc3c(c2c(=O)n1C)CCC3            1.01
19               O=C(OCc1ccccc1)c1cncc(Br)c1           -7.74
20                    Brc1ccc(C#Cc2cccs2)cc1           -4.29
21  CCN(Cc1nccn1C)C(=O)c1ccc(N(C)CC2CCCCN2C)nc1 (stereo not drawn)          -0.562
22  Cc1cc(/C=C2\C(=O)NC(=S)N(c3ccc(Cl)cc3)C2=O)c(C)n1-c1ccccc1            1.69

* * *

# tested.target: E3 ubiquitin-protein ligase RBX1 (Homo sapiens) + Cullin-1 (Homo sapiens) (UniProt P62877+Q13616)
# assay.remarks: inhibitors of human ROC1-CUL1 ubiquitin ligase activity (AID 1347404)
# condition.details: in vitro K48 di-Ub FRET, acceptor:donor ratio, 45 min; at 10 µM; active compounds read high
Hit rate of the full screen: of about 140,000 compounds, about 860 (0.61%) were called active. This is one part of a sample in which actives are shown more often than they occur.
quantity.kind: inhibition (%)

>>> print(df.to_string())
                                    compound  measured_value
 0  COc1cccc(C(=O)NC2(C(F)(F)F)C(=O)N=C3C2C(=O)NC(=O)N3c2ccc(C)cc2)c1 (centres undefined)           -7.22
 1  COc1ccc(C(Nc2cc(C)ccn2)c2ccc3cccnc3c2O)c(OC)c1OC (centres undefined)            2.02
 2  CCN(CC1CCN(C2CCN(C)CC2)CC1)C(=O)c1occc1C            9.69
 3  Cc1ccc(C(=O)Nc2ccc(-c3nnc(SCC(=O)Nc4ccc(F)cc4)n3C)cc2)cc1            2.28
 4  c1ccc(-c2oc(-c3ccccc3)c(-c3ccccc3)c2-c2ccccc2)cc1           -5.11
 5  CCOC(=O)C1C(C)=NC(=O)NC1c1cn(-c2ccccc2)nc1-c1ccc(Cl)cc1 (centres undefined)           -6.88
 6  CC1=NC(=O)C(C#N)=C(C)C1CSCc1ccco1 (centres undefined)           0.332
 7        C=CCNC(=O)C1CCN(S(=O)(=O)N(C)C)CC1            8.77
 8  O=C([O-])c1ccc(C[n+]2c3ccccc3n3nc4c(cc32)c2cccc3cccc4c32)cc1           -16.8
 9    CCCCc1nnc(SCC2=Nc3ccc(F)cc3C(=O)C2)n1C           -6.52
10  CCN1CCN(c2nc(-c3ccc(OC)cc3)cc(=O)[nH]2)CC1            5.84
11  Cc1cc(C)cc(N2CC(C(=O)N3CCc4ccccc4C3)CC2=O)c1 (centres undefined)            6.46
12  CC(=O)c1ccc(NC(=O)CCCC(=O)OCC(=O)c2ccc(-c3ccccc3)cc2)cc1           -6.85
13      CCCCCOc1cccc(OCC(=O)Nc2cccc(OC)c2)c1           0.894
14  CCOC(=O)c1cc(N2C(=O)c3cccc4cccc(c34)C2=O)ccc1Cl           -1.46
15        CC(=O)Nc1ccc(OC(=O)c2cccc(C)c2)cc1           -0.55
16       Cc1nc2c(sc3nc4ccccc4nc32)c(=O)[nH]1           -2.71
17  O=C(C[n+]1c2ccccc2n2nc3c(cc21)c1cccc2cccc3c21)Nc1nc2ccccc2[nH]1            93.1
18             Clc1ccc(COn2nnc3ccccc32)cc1Cl         -0.0969
19  O=C(O)c1ccccc1C(=O)Nc1ccc(-c2cn3ccsc3n2)cc1            10.3
20  Cc1nn(-c2ccccc2)c(Cl)c1C1c2c(n[nH]c2-c2ccccc2)OC(=N)C1C#N (centres undefined)            -6.2
21  COc1ccc2c(c1)CCCN2Cn1nc(COc2ccc(C3CCCCC3)cc2)n(C)c1=S           0.371
22  Nc1nc2c(ncn2S(=O)(=O)c2ccc(C(=O)O)cc2)c(=O)[nH]1            7.51
23       CCCCCCCCCCCCOc1c(OC)cc(C(=O)O)cc1OC            26.5
24  CCN(CC)C(=O)c1sc(NC(=O)C(Sc2ccccc2)c2ccccc2)c(C#N)c1C (centres undefined)            2.76
25         CC(C)(C)NS(=O)(=O)Cc1ccc(Cl)cc1Cl            7.68
26  CC1(C)CC(=O)C(=Cc2c[nH]c3ccccc23)C(=O)C1          -0.144
27          COc1cc(C(=O)O)ccc1OC(=O)C1CCCCC1            2.41
28  COc1ccc(C(=O)Nc2ccc3nc(N4CCCCC4)cc(C)c3c2)cc1OC            -8.5
29  N#Cc1ccc(-c2nc3cc(C#N)c(C#N)cc3nc2-c2ccccc2)cc1C#N          0.0365
30  O=C(NNc1cc(N2CCCC2)nc(N2CCCC2)n1)c1ccccc1            31.7
31  COc1cc(C2C3=C(CCCC3=O)OC3=C2C(=O)CCC3)ccc1OCC(=O)Nc1ccccc1           -1.19
32  N#CC1=C2c3ccccc3CCC2C(c2ccco2)=NC1=O (centres undefined)              42
33   NC(=O)c1ccccc1NC(=O)c1ccc(CN2CCCCC2)cc1            4.02

* * *

# tested.target: E3 ubiquitin-protein ligase RBX1 (Homo sapiens) + Cullin-1 (Homo sapiens) (UniProt P62877+Q13616)
# assay.remarks: inhibitors of human ROC1-CUL1 ubiquitin ligase activity (AID 1347404)
# condition.details: in vitro K48 di-Ub FRET, acceptor:donor ratio, 45 min; at 10 µM; active compounds read high
Among all 140,000 compounds or so, about 860 (0.61%) were called active. Only a selection was taken, and actives are over-represented in it overall.
// reported inhibition per item
quantity.kind: inhibition (%)

>>> df
                                    compound  readout_units  measured_value
 0            Cn1c(CC(=O)c2ccc(F)cc2)nccc1=O              %            2.65
 1  c1cc2nsnc2cc1CN1CCCC(Nc2ccc3c(c2)OCO3)C1 (stereo unspecified)              %            2.61
 2                Clc1ccc(-c2cc3ccccc3o2)cc1              %           -1.45
 3  COC(=O)COc1ccc(/C=N/NC(=O)c2ccc(N(Cc3ccccc3Cl)S(C)(=O)=O)cc2)cc1              %            -4.5
 4  O=C1SC(=Nc2ccccc2)N=C1Cc1cccc(OC(=O)c2ccccc2)c1              %            2.05
 5  CC(=O)N1N=C(c2ccc(Cl)cc2Cl)CC1c1ccccc1 (stereo unspecified)              %           -1.24
 6  O=C(c1nn2c(C(F)(F)F)c3c(nc2c1Cl)-c1ccccc1CC3)N1CCN(c2ccc(F)cc2)CC1              %           -4.56
 7  Cc1ccc(N=C/C=C/c2ccc([N+](=O)[O-])cc2)cc1              %            6.74
 8  CCOC(=O)c1cnc2c(C)cc(Cl)cc2c1N1CCN(Cc2ccccc2)CC1              %           -3.19
 9       CC(C)NC(=O)Cc1coc2ccc(C(C)(C)C)cc12              %            5.19
10        COc1cccc(OC)c1C(=O)Oc1ccc(Br)cc1Br              %            3.84
